tgt: human cannabis CB1 receptor (Homo sapiens)
Construct: expressed in transfected cells; host or cells: human embryonic kidney (HEK) cells, Semliki Forest Virus system, membrane preparation
experiment_description: CB1 receptor affinity, [3H]-CP-55,940 radioligand binding on HEK cell membranes
condition_set: membranes of HEK cells transiently transfected with human CB1 receptor; radioligand [3H]-CP-55,940; read-out: IC50 (affinity for the CB1 receptor)
pIC50: −log10 of the molar value.
measure_name: pIC50

{"line_notation": "CCCCNC(=O)c1cc(-c2csc(-c3ccc(OC)cc3)n2)n(Cc2ccccn2)c1C", "measure_name": "pIC50", "meas_value": "> 5.70"}

---

Listing of recorded IC50 by entry.
tgt: human cannabis CB1 receptor (Homo sapiens, UniProt P21554)
Construct: expressed in transfected cells; host or cells: human embryonic kidney (HEK) cells, Semliki Forest Virus system, membrane preparation
Sequence (P21554 whole entry): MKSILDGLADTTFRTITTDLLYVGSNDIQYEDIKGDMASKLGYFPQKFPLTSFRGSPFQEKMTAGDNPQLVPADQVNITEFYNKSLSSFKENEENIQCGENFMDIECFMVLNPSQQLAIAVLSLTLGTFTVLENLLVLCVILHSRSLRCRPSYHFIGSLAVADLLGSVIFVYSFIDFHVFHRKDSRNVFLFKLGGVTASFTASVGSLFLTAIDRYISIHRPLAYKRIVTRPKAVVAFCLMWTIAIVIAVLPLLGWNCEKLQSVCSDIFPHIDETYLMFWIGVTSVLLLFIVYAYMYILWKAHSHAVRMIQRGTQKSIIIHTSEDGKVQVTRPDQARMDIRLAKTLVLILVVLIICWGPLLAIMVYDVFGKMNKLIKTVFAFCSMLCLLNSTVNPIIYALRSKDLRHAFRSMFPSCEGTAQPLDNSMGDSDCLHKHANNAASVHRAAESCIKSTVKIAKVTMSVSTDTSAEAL
experiment_description: CB1 receptor affinity, [3H]-CP-55,940 radioligand binding on HEK cell membranes

{"compound": "COc1ccc(-c2nc(-c3cc(C(=O)NC4CCCCC4)c(C)n3CC3CCCCC3)cs2)cc1 [Example 356]", "tgt": "human cannabis CB1 receptor (Homo sapiens, UniProt P21554)", "IC50": "< 2000 nM"}
{"compound": "COc1ccc(-c2nc(-c3cc(C(=O)N4CCCCC4)c(C)n3CC3CCCCC3)cs2)cc1 [Example 311]", "tgt": "human cannabis CB1 receptor (Homo sapiens, UniProt P21554)", "IC50": "< 2000 nM"}
{"compound": "COc1ccc(-c2nc(-c3cc(C(=O)NCc4ccccn4)c(C)n3CC3CCCCC3)cs2)cc1 [Example 305]", "tgt": "human cannabis CB1 receptor (Homo sapiens, UniProt P21554)", "IC50": "< 2000 nM"}
{"compound": "COc1ccc(-c2nc(-c3cc(C(=O)Nc4ccccc4)c(C)n3CC3CCCCC3)cs2)cc1 [Example 315]", "tgt": "human cannabis CB1 receptor (Homo sapiens, UniProt P21554)", "IC50": "< 2000 nM"}
